The measured values listed here are drawn from PubChem BioAssay AID1845208.

Assignment: determine reported pIC50 for the given compounds.
- Tested on: NCI-H196 SCLC complex tumor spheroid viability
- method notes: Anticancer human tumor NCI-H196 cell line growth inhibition;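 also: spheroids exposed to compounds for 7 days before readout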
- details: curve of first compound; second compound 100 µM
pIC50: −log10 of the molar value.

# pIC50 of CNCc1ccc(-c2cc(-c3nc(-c4ccc(S(=O)(=O)C(C)C)cc4)cnc3N)on2)cc1 + Cn1nnc2c(C(N)=O)ncn2c1=O = < 5.52

Data point: [2H]c1nc(C)nc([2H])c1-c1cc(NC[C@@H](C)c2cccc3c(C(=O)NC)ccnc23)ncn1 + Cn1nnc2c(C(N)=O)ncn2c1=O ; pIC50 = < 5.00

Briefly, pIC50 measured for Cc1cc(C)c(CNC(=O)c2cc(-c3ccc(CN4CCOCC4)cc3)cc3c2cnn3C2CCCC2)c(=O)[nH]1 + Cn1nnc2c(C(N)=O)ncn2c1=O : < 5.00

For reference, reported pIC50 for CC(C)n1c(=O)n(C)c2cnc3cc(F)c(-c4ccc(OCCCN5CCCCC5)nc4)cc3c21 + Cn1nnc2c(C(N)=O)ncn2c1=O stands at < 5.00

The recorded pIC50 for CC1COCCN1c1cc(-c2ccnn2C)c2ccnc(-c3ccn[nH]3)c2n1 (stereo not given) + Cn1nnc2c(C(N)=O)ncn2c1=O is 5.46

Sample COc1ccc([C@@H](O)c2cc(-c3ncnc4cc(N5CCOCC5)ccc34)c(F)cc2Cl)nn1 + Cn1nnc2c(C(N)=O)ncn2c1=O ; pIC50 observed: < 5.00

Consider COc1cc(C)[nH]c(=O)c1CN1CCc2c(Cl)cc(C(OC)C3COC3)c(Cl)c2C1=O (stereo not given) + Cn1nnc2c(C(N)=O)ncn2c1=O . Its measured pIC50 is < 5.00

Entry O=C(c1cc(Cc2n[nH]c(=O)c3ccccc23)ccc1F)N1CCN(C(=O)C2CC2)CC1 + Cn1nnc2c(C(N)=O)ncn2c1=O — recorded pIC50 = < 4.52

Lab note: measured pIC50 of Cc1sc2c(c1C)C(c1ccc(Cl)cc1)=NC(CC(=O)Nc1ccc(O)cc1)c1nnc(C)n1-2 (stereo not given) + Cn1nnc2c(C(N)=O)ncn2c1=O was 5.61

Reported pIC50 for Cn1ncnc1[C@H]1c2n[nH]c(=O)c3cc(F)cc(c23)N[C@@H]1c1ccc(F)cc1 + Cn1nnc2c(C(N)=O)ncn2c1=O was < 5.52

* * *

- System: NCI-H196 SCLC complex tumor spheroid viability
- method notes: Anticancer human tumor NCI-H196 cell line growth inhibition;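 also: spheroids exposed to compounds for 7 days before readout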;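 as to viability, T/C: 100% = DMSO vehicle control wells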
- details: second compound 0.000949 µM; first compound 3 µM; stronger effect = lower value
measure name: viability, T/C (%)
Write the answer as a number in %, unit excluded.

Item: Cc1sc2c(c1C)C(c1ccc(Cl)cc1)=NC(CC(=O)Nc1ccc(O)cc1)c1nnc(C)n1-2 (centres undefined) + COc1cc2c(cc1O)CCNC21CSC2c3c(OC(C)=O)c(C)c4c(c3C(COC1=O)N1C(O)C3Cc5cc(C)c(OC)c(O)c5C(C21)N3C)OCO4 | System: NCI-H196 SCLC complex tumor spheroid viability | viability, T/C: 52.7

// viability, T/C (NCI-H196 SCLC complex tumor spheroid viability) for Cn1ncnc1[C@H]1c2n[nH]c(=O)c3cc(F)cc(c23)N[C@@H]1c1ccc(F)cc1 + COc1cc2c(cc1O)CCNC21CSC2c3c(OC(C)=O)c(C)c4c(c3C(COC1=O)N1C(O)C3Cc5cc(C)c(OC)c(O)c5C(C21)N3C)OCO4 = 71.2

Record for O=C(c1cc(Cc2n[nH]c(=O)c3ccccc23)ccc1F)N1CCN(C(=O)C2CC2)CC1 + COc1cc2c(cc1O)CCNC21CSC2c3c(OC(C)=O)c(C)c4c(c3C(COC1=O)N1C(O)C3Cc5cc(C)c(OC)c(O)c5C(C21)N3C)OCO4 under target or system NCI-H196 SCLC complex tumor spheroid viability: viability, T/C reported as 78.5

The value of viability, T/C recorded for CNCc1ccc(-c2cc(-c3nc(-c4ccc(S(=O)(=O)C(C)C)cc4)cnc3N)on2)cc1 + COc1cc2c(cc1O)CCNC21CSC2c3c(OC(C)=O)c(C)c4c(c3C(COC1=O)N1C(O)C3Cc5cc(C)c(OC)c(O)c5C(C21)N3C)OCO4 when tested on NCI-H196 SCLC complex tumor spheroid viability reads 86.6
